Provenance of the data: patent US11053248B2

measurement_target: PDE2A (Rattus norvegicus)
Construct: from tissue; host or cells: rat brain striatal sections (ex vivo)
Sequence (Q01062 whole entry): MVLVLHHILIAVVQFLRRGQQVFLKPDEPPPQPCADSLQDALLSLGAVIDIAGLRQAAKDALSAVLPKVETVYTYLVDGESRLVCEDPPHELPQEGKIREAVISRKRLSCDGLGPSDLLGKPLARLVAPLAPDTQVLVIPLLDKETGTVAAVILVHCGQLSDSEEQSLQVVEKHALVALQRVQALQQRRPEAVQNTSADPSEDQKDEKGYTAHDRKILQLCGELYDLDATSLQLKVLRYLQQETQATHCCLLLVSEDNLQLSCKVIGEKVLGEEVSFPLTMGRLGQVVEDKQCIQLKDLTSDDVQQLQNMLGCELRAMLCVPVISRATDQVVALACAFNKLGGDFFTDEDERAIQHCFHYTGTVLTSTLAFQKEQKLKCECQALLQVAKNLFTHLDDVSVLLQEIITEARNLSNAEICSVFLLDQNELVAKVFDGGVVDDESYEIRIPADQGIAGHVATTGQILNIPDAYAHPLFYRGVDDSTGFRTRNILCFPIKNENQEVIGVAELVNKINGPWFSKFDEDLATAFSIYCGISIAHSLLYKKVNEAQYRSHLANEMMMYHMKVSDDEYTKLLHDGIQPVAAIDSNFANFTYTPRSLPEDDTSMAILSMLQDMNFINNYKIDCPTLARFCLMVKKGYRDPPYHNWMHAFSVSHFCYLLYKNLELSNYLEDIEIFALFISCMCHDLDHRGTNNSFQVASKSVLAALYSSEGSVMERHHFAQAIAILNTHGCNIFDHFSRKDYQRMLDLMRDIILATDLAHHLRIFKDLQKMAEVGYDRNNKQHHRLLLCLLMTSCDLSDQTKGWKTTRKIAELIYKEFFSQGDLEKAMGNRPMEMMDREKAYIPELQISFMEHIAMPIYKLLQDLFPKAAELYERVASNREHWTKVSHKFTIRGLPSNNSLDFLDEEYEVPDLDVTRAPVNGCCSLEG
assay_text: PDE2 occupancy by ex-vivo autoradiography with [3H]B-17a
Format: in vivo
measurement_parameters: rat; route SC (subcutaneous), 10 mg/kg, male Wistar rats, striatum, percentage occupancy; read-out: PDE2 occupancy at 10 mg/kg
metric_name: receptor occupancy at 10 mg/kg (%)

{"compound": "Cc1cccc2ccnc(N3CC[C@@H](C)C(c4cc(C(F)F)nc5ncnn45)C3)c12 (stereo partly shown) [Compound 41]", "recorded_value": -8}
{"compound": "C[C@@H]1CCN(c2cc(N3CCOCC3)ccn2)C[C@H]1c1cc(C(F)F)nc2ncnn12 [Compound 27]", "recorded_value": 0}
{"compound": "C[C@@H]1CCN(c2nccc3cccnc23)C[C@H]1c1cc(C(F)F)nc2ncnn12 [Compound 23]", "recorded_value": 5}
{"compound": "C[C@@H]1CCN(c2cc(I)ccn2)C[C@H]1c1cc(C(F)F)nc2ncnn12 [Compound 16]", "recorded_value": -14}

###

measurement_target: PDE2A (Rattus norvegicus)
Construct: from tissue; host or cells: rat brain striatal sections (ex vivo)
assay_text: PDE2 occupancy by ex-vivo autoradiography with [3H]B-17a
Assay type: in vivo
measurement_parameters: rat, sc, read-out: PDE2 occupancy at 10 mg/kg, route SC (subcutaneous), 10 mg/kg, male Wistar rats, striatum, percentage occupancy
Parameter receptor occupancy at 10 mg/kg: see the listing below.

{"smiles_notation": "C[C@@H]1CCN(c2nccc3ccc(O)cc23)C[C@H]1c1cc(C(F)F)nc2ncnn12", "receptor occupancy at 10 mg/kg (%)": -6}
{"smiles_notation": "COc1cccc2c(N3CC[C@@H](C)[C@H](c4cc(C(F)F)nc5ncnn45)C3)nccc12.Cl", "receptor occupancy at 10 mg/kg (%)": 53}
{"smiles_notation": "C[C@@H]1CCN(c2nccc3[nH]ccc23)C[C@H]1c1cc(C(F)F)nc2ncnn12", "receptor occupancy at 10 mg/kg (%)": 36}
{"smiles_notation": "C[C@@H]1CCN(c2nccc3ccccc23)C[C@H]1c1cc(C(F)F)nc2ncnn12", "receptor occupancy at 10 mg/kg (%)": 81}

###

measurement_target: hPDE10A2 (Homo sapiens)
Sequence (Q9Y233 267-1055): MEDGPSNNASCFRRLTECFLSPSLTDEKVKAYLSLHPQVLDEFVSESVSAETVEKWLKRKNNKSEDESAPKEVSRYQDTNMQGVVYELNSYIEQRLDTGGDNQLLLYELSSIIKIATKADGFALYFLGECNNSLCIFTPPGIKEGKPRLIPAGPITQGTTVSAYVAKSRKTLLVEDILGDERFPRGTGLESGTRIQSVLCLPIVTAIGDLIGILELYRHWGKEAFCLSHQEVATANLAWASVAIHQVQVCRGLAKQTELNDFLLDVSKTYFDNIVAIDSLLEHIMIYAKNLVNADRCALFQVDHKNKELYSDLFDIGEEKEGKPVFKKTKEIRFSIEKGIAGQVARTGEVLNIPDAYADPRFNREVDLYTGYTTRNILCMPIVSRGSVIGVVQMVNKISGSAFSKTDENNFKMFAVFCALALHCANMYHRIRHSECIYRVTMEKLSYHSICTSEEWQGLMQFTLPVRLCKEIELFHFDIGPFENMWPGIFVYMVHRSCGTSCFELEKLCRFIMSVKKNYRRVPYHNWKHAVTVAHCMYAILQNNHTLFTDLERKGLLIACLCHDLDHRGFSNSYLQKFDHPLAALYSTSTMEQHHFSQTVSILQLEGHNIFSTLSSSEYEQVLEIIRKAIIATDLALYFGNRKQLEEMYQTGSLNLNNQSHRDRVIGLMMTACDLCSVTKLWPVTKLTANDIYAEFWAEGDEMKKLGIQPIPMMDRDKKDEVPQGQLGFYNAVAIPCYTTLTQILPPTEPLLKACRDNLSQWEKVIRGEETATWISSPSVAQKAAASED
assay_text: biochemical
measurement_parameters: read-out: hPDE10A2 Emax
metric_name: Emax (%)

{"compound": "C[C@@H]1CCN(c2nccc3ccc(O)cc23)C[C@H]1c1cc(C(F)F)nc2ncnn12 [Compound 18]", "recorded_value": 97}
{"compound": "COc1cnc(N2CC[C@@H](C)[C@H](c3cc(C(F)F)nc4ncnn34)C2)c2ccccc12 [Compound 8]", "recorded_value": 97}
{"compound": "C[C@@H]1CCN(c2ccc(C(F)(F)F)cn2)C[C@H]1c1cc(C(F)F)nc2ncnn12 [Compound 38]", "recorded_value": 92}
{"compound": "C[C@@H]1CCN(c2nccc3ccc(Br)cc23)C[C@H]1c1cc(C(F)F)nc2ncnn12 [Compound 1]", "recorded_value": 98}

###

measurement_target: hPDE2A (Homo sapiens)
Construct: made in house; host or cells: Sf9 insect cells (baculovirus)
assay_text: In vitro assay PDE2A (SPA, 3H-cGMP)
Type: biochemical
pIC50: −log10 of the molar value.
Would you mind labelling by pIC50? At or over 7 is True, under is False.

{"molecule": "C[C@@H]1CCN(c2nccc3[nH]ccc23)C[C@H]1c1cc(C(F)F)nc2ncnn12 [Compound 9]", "label_class": "True"}
{"molecule": "C[C@@H]1CCN(c2nccc3ccc(F)cc23)C[C@H]1c1cc(C(F)F)nc2ncnn12 [Compound 14]", "label_class": "True"}
{"molecule": "CC(C)Oc1cccnc1N1CC[C@H](C)[C@@H](c2cc(C(F)F)nc3ncnn23)C1.Cl [Compound 34]", "label_class": "False"}
{"molecule": "C[C@@H]1CCN(c2ncc(Cl)c3ccccc23)C[C@H]1c1cc(C(F)F)nc2ncnn12 [Compound 6]", "label_class": "True"}
{"molecule": "C[C@H]1CCN(c2nccc3occc23)C[C@@H]1c1cc(C(F)F)nc2ncnn12 [Compound 30]", "label_class": "False"}
{"molecule": "C[C@H]1CCN(c2nccc3ccc(Br)cc23)C[C@@H]1c1cc(C(F)F)nc2ncnn12 [Compound 29]", "label_class": "False"}
{"molecule": "COc1cccc2c(N3CC[C@@H](C)[C@H](c4cc(C(F)F)nc5ncnn45)C3)nccc12.Cl [Compound 10]", "label_class": "True"}

###

measurement_target: hPDE2A (Homo sapiens, UniProt O00408)
Construct: made in house; host or cells: Sf9 insect cells (baculovirus)
Sequence (O00408 whole entry): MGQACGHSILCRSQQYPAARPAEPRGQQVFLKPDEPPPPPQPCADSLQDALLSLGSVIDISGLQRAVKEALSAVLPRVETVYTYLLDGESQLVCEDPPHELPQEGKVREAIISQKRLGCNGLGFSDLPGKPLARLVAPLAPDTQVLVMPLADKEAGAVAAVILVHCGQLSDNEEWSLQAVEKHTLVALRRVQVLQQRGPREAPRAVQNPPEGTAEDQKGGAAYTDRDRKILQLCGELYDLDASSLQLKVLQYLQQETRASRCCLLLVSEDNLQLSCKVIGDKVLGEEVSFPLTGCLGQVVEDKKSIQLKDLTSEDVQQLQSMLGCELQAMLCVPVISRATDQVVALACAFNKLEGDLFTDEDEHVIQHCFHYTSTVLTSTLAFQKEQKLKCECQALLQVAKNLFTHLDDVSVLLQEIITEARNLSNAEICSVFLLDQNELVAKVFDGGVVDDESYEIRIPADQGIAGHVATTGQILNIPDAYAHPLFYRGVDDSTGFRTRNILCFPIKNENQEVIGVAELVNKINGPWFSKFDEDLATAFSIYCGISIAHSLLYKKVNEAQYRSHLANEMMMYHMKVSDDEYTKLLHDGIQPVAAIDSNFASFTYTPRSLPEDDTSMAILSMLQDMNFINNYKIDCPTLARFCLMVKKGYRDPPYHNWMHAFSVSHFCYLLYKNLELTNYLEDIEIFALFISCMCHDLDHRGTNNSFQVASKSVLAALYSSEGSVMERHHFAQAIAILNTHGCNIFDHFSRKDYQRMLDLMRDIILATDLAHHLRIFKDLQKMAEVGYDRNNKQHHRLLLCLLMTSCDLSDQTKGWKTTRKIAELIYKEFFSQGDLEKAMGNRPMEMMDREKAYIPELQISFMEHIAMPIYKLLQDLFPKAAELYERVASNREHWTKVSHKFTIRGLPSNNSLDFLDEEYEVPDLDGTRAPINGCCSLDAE
assay_text: In vitro assay PDE2A (SPA, 3H-cGMP)
Assay type: biochemical
Description: Human recombinant PDE2A (hPDE2A) was expressed in Sf9 cells using a recombinant rPDE10A baculovirus construct. Cells were harvested after 48 h of infection and the hPDE2A protein was purified by metal chelate chromatography on Ni-sepharose 6FF. […] After sedimentation of the beads during 30 minutes the radioactivity was measured in a Perkin Elmer Topcount scintillation counter and results were expressed as cpm. […]
Note to self: use MET only for IC50 readings below 70 nM; a reading exactly at 70 nM still gets NOT MET.

{"molecule": "C[C@@H]1CCN(c2ccc(F)cn2)C[C@H]1c1cc(C(F)F)nc2ncnn12", "label_class": "NOT MET"}
{"molecule": "Cc1cc(C(F)(F)F)cc(N2CC[C@@H](C)[C@H](c3cc(C(F)F)nc4ncnn34)C2)n1", "label_class": "MET"}
{"molecule": "Cc1ccc(C#N)c(N2CC[C@@H](C)[C@H](c3cc(C(F)F)nc4ncnn34)C2)n1", "label_class": "MET"}
{"molecule": "Cc1cc([C@@H]2CN(c3nccc4ccccc34)CC[C@H]2C)n2ncnc2n1", "label_class": "MET"}
{"molecule": "Cc1cc([C@@H]2CN(c3nccc4ccc(Cl)cc34)CC[C@H]2C)n2ncnc2n1", "label_class": "MET"}
{"molecule": "C[C@@H]1CCN(c2ccc(C(F)(F)F)cn2)C[C@H]1c1cc(C(F)F)nc2ncnn12", "label_class": "NOT MET"}
{"molecule": "C[C@@H]1CCN(c2ccnc3ccccc23)C[C@H]1c1cc(C(F)F)nc2ncnn12", "label_class": "MET"}
{"molecule": "COc1cnc(N2CC[C@@H](C)[C@H](c3cc(C(F)F)nc4ncnn34)C2)c2ccccc12", "label_class": "MET"}
{"molecule": "C[C@@H]1CCN(c2cc(I)ccn2)C[C@H]1c1cc(C(F)F)nc2ncnn12", "label_class": "MET"}
{"molecule": "Cc1cc([C@@H]2CN(c3nccc4ccc(Br)cc34)CC[C@H]2C)n2ncnc2n1", "label_class": "MET"}
{"molecule": "C[C@@H]1CCN(c2nccc3cccnc23)C[C@H]1c1cc(C(F)F)nc2ncnn12", "label_class": "NOT MET"}
{"molecule": "C[C@@H]1CCN(c2ncccc2Cl)C[C@H]1c1cc(C(F)F)nc2ncnn12", "label_class": "NOT MET"}
{"molecule": "C[C@@H]1CCN(c2cc(N3CCOCC3)ccn2)C[C@H]1c1cc(C(F)F)nc2ncnn12", "label_class": "NOT MET"}
{"molecule": "C[C@@H]1CCN(c2cc(C#N)ccn2)C[C@H]1c1cc(C(F)F)nc2ncnn12", "label_class": "MET"}
{"molecule": "C[C@@H]1CCN(c2ccc(Cl)cn2)C[C@H]1c1cc(C(F)F)nc2ncnn12", "label_class": "NOT MET"}
{"molecule": "C[C@@H]1CCN(c2ccccn2)C[C@H]1c1cc(C(F)F)nc2ncnn12.Cl", "label_class": "NOT MET"}
{"molecule": "Cc1cccc2ccnc(N3CC[C@@H](C)C(c4cc(C(F)F)nc5ncnn45)C3)c12 (some centres unmarked)", "label_class": "NOT MET"}

###

measurement_target: PDE2A (Rattus norvegicus)
Construct: from tissue; host or cells: rat brain striatal sections (ex vivo)
assay_text: PDE2 occupancy by ex-vivo autoradiography with [3H]B-17a
Format: in vivo
measurement_parameters: rat, po, read-out: PDE occupancy ED50, route PO (oral), male Wistar rats, dose producing 50% occupancy
Protocol: PDE2 Occupancy by Test Compounds Methods Brains were immediately removed from the skull and rapidly frozen in dry-ice cooled 2-methylbutane (−40° C.). […] Brain sections were loaded in a β-imager (Biospace, Paris) for 4 h and radioactivity emerging from delineated brain area was quantified using the Beta vision program (Biospace, Paris). Specific binding was determined as the difference between total binding in the striatum and non-specific binding in the cerebellum. […]
Criterion: ED50 strictly less than 8 mg/kg. Met: 1. Not met: 0.

{"smiles_notation": "Cc1cc([C@@H]2CN(c3nccc4ccc(Br)cc34)CC[C@H]2C)n2ncnc2n1", "label_class": 1}
{"smiles_notation": "COc1cccc2c(N3CC[C@@H](C)[C@H](c4cc(C(F)F)nc5ncnn45)C3)nccc12.Cl", "label_class": 0}
{"smiles_notation": "C[C@@H]1CCN(c2nccc3ccccc23)C[C@H]1c1cc(C(F)F)nc2ncnn12", "label_class": 0}
{"smiles_notation": "Cc1cc([C@@H]2CN(c3nccc4ccc(Cl)cc34)CC[C@H]2C)n2ncnc2n1", "label_class": 1}
